Experiment: Stability in simulated intestinal fluid (SIF)
Format: in vitro ADME
Conditions: simulated intestinal fluid with pancreatin, pH 6.8, 37° C., matrix is 100 fold dilution of standard SIF concentration, read-out: SIF t½ (converted)
Bridge positions count the residues as written; N and C are the ends. Square brackets hold non-standard residues; d marks the D form. Peptide text beside a SMILES is read from it. Trp(7-Me) = Cc1cccc2c(C[C@H](N)C(=O)O)c[nH]c12; 2Nal = N[C@@H](Cc1ccc2ccccc2c1)C(=O)O; AEF = NCCOc1ccc(C[C@H](N)C(=O)O)cc1; Cit = NC(=O)NCCC[C@H](N)C(=O)O; Pen = CC(C)(S)[C@H](N)C(=O)O; αMeK = C[C@](N)(CCCCN)C(=O)O; Aib = CC(C)(N)C(=O)O; βAla = NCCC(=O)O
REPORTED_PROPERTY: half-life at 20 μM
Respond with a number, then the unit of measure.

# input So what's the measured half-life at 20 μM for this one? CC(=O)NCCCC[C@H](NC(=O)[C@](C)(CCCCN)NC(=O)[C@H](Cc1ccc2ccccc2c1)NC(=O)[C@H](Cc1ccc(OCCN)cc1)NC(=O)[C@H]1NC(=O)[C@H](CCC(N)=O)NC(=O)[C@H](Cc2c[nH]c3c(C)cccc23)NC(=O)[C@H]([C@@H](C)O)NC(=O)C(C)(C)NC(=O)[C@@H](NC(C)=O)C(C)(C)SSC1(C)C)C(=O)N[C@@H](CC(N)=O)C(=O)NCCC(N)=O [compound 240] (Ac-[Pen][Aib]T[Trp(7-Me)]Q[Pen][AEF][2Nal][αMeK]K(Ac)N[βAla]-NH2; disulfide 1-6)
# output 7 h

# input GET /values?readout=half-life at 20 μM&item= `CC(=O)NCCCC[C@@H]1NC(=O)[C@H](Cc2c(C)[nH]c3ccccc23)NC(=O)[C@H]([C@@H](C)O)NC(=O)[C@H](CC(N)=O)NC(=O)[C@@H](NC(C)=O)C(C)(C)SSC(C)(C)[C@@H](C(=O)N[C@@H](Cc2ccc(OCCN)cc2)C(=O)N[C@@H](Cc2ccc3ccccc3c2)C(=O)N[C@@](C)(CCCCN)C(=O)N[C@@H](CCCCNC(C)=O)C(=O)N[C@@H](CC(N)=O)C(=O)N[C@H](CCCCN)C(N)=O)NC1=O`
# output 12 h

# input # lookup: half-life at 20 μM of `CC(=O)NCCCC[C@@H]1NC(=O)[C@H](Cc2c[nH]c3c(C)cccc23)NC(=O)[C@H]([C@@H](C)O)NC(=O)[C@H](CC(N)=O)NC(=O)[C@@H](NC(C)=O)C(C)(C)SSC(C)(C)[C@@H](C(=O)N[C@@H](Cc2ccc(OCCN)cc2)C(=O)N[C@@H](Cc2ccc3ccccc3c2)C(=O)N[C@@](C)(CCCCN)C(=O)N[C@@H](CCCCNC(C)=O)C(=O)N[C@@H](CC(N)=O)C(=O)N2CCC[C@H]2C(N)=O)NC1=O`
# output 10 h

# input Item under review: CC(=O)NCCCC[C@@H]1NC(=O)[C@H](Cc2c[nH]c3c(C)cccc23)NC(=O)[C@H]([C@@H](C)O)NC(=O)[C@H](CCCNC(=N)N)NC(=O)[C@@H](NC(C)=O)C(C)(C)SSC(C)(C)[C@@H](C(=O)N[C@@H](Cc2ccc(OCCN)cc2)C(=O)N[C@@H](Cc2ccc3ccccc3c2)C(=O)N[C@@](C)(CCCCN)C(=O)N[C@@H](CCCCNC(C)=O)C(=O)N[C@@H](CC(N)=O)C(=O)N[C@H](CC(C)C)C(N)=O)NC1=O [compound 336] (Ac-[Pen]RT[Trp(7-Me)]K(Ac)[Pen][AEF][2Nal][αMeK]K(Ac)N[dL]-NH2; disulfide 1-6) . Reported half-life at 20 μM?
# output 10 h

# input Any idea what its half-life at 20 μM is? The compound is `CC(=O)NCCCC[C@H](NC(=O)[C@](C)(CC(C)C)NC(=O)[C@H](Cc1ccc2ccccc2c1)NC(=O)[C@H](Cc1ccc(OCCN)cc1)NC(=O)[C@H]1NC(=O)[C@H](CCC(N)=O)NC(=O)[C@H](Cc2c[nH]c3c(C)cccc23)NC(=O)[C@H]([C@@H](C)O)NC(=O)[C@H](CC(N)=O)NC(=O)[C@@H](NC(C)=O)C(C)(C)SSC1(C)C)C(=O)N[C@H](C)C(=O)NCCC(N)=O`
# output 15 h

# input Quick one: half-life at 20 μM for `CC(=O)NCCCC[C@@H]1NC(=O)[C@H](Cc2c[nH]c3c(C)cccc23)NC(=O)[C@H]([C@@H](C)O)NC(=O)[C@H](CC(N)=O)NC(=O)[C@@H](NC(C)=O)C(C)(C)SSC(C)(C)[C@@H](C(=O)N[C@@H](Cc2ccc(OCCN)cc2)C(=O)N[C@@H](Cc2ccc3ccccc3c2)C(=O)N[C@@](C)(CCCCN)C(=O)N[C@@H](CCCCNC(C)=O)C(=O)N[C@@H](CC(N)=O)C(=O)N[C@H](C(N)=O)C(C)C)NC1=O` ?
# output 11 h

# input // returns reported half-life at 20 μM for input `CC(=O)NCCCC[C@@H]1NC(=O)[C@H](Cc2c[nH]c3c(C)cccc23)NC(=O)[C@H]([C@@H](C)O)NC(=O)[C@H](CC(N)=O)NC(=O)[C@@H](NC(C)=O)C(C)(C)SSC(C)(C)[C@@H](C(=O)N[C@@H](Cc2ccc(OCCN)cc2)C(=O)N[C@@H](Cc2ccc3ccccc3c2)C(=O)N[C@@](C)(CCCCN)C(=O)N[C@@H](CCCCNC(C)=O)C(=O)N[C@@H](CC(N)=O)C(=O)N[C@H](Cc2ccccc2)C(N)=O)NC1=O`
# output 14 h

# input Look up half-life at 20 μM for this compound: CC(=O)NCCCC[C@@H]1NC(=O)[C@H](Cc2c[nH]c3c(C)cccc23)NC(=O)[C@H]([C@@H](C)O)NC(=O)[C@H](CCCNC(N)=O)NC(=O)[C@@H](NC(C)=O)C(C)(C)SSC(C)(C)[C@@H](C(=O)N[C@@H](Cc2ccc(OCCN)cc2)C(=O)N[C@@H](Cc2ccc3ccccc3c2)C(=O)N[C@@](C)(CCCCN)C(=O)N[C@@H](CCCCNC(C)=O)C(=O)N[C@@H](CC(N)=O)C(=O)N[C@H](CC(C)C)C(N)=O)NC1=O [compound 331] (Ac-[Pen][Cit]T[Trp(7-Me)]K(Ac)[Pen][AEF][2Nal][αMeK]K(Ac)N[dL]-NH2; disulfide 1-6)
# output 15 h

# input Given the compound `CC(=O)NCCCC[C@@H]1NC(=O)[C@H](Cc2c[nH]c3c(C)cccc23)NC(=O)[C@H]([C@@H](C)O)NC(=O)[C@H](CC(N)=O)NC(=O)[C@@H](NC(C)=O)C(C)(C)SSC(C)(C)[C@@H](C(=O)N[C@@H](Cc2ccc(OCCN)cc2)C(=O)N[C@@H](Cc2ccc3ccccc3c2)C(=O)N[C@@](C)(CCCCN)C(=O)N[C@@H](CCCCNC(=O)CC(C)C)C(=O)N[C@@H](CC(N)=O)C(=O)N[C@H](CC(C)C)C(N)=O)NC1=O` , what is its reported half-life at 20 μM?
# output 10 h

----------
Would you mind telling me the reported half-life at 20 μM of each entry?
Assay: Stability in simulated intestinal fluid (SIF)
Assay type: in vitro ADME
Conditions: simulated intestinal fluid with pancreatin, pH 6.8, 37° C., matrix is 100 fold dilution of standard SIF concentration, read-out: SIF t½ (converted)
Bridge positions count the residues as written; N and C are the ends. Square brackets hold non-standard residues; d marks the D form. Peptide text beside a SMILES is read from it. Trp(7-Me) = Cc1cccc2c(C[C@H](N)C(=O)O)c[nH]c12; 2Nal = N[C@@H](Cc1ccc2ccccc2c1)C(=O)O; AEF = NCCOc1ccc(C[C@H](N)C(=O)O)cc1; Cit = NC(=O)NCCC[C@H](N)C(=O)O; Pen = CC(C)(S)[C@H](N)C(=O)O; αMeK = C[C@](N)(CCCCN)C(=O)O; Aib = CC(C)(N)C(=O)O; βAla = NCCC(=O)O
Please state the figure in h; there is no need to write the unit.

# input I would be grateful if you could share the reported half-life at 20 μM for `CC(=O)NCCCC[C@@H]1NC(=O)[C@H](Cc2c[nH]c3c(C)cccc23)NC(=O)[C@H]([C@@H](C)O)NC(=O)[C@H](CC(N)=O)NC(=O)[C@@H](NC(C)=O)C(C)(C)SSC(C)(C)[C@@H](C(=O)N[C@@H](Cc2ccc(OCCN)cc2)C(=O)N[C@@H](Cc2ccc3ccccc3c2)C(=O)N[C@@](C)(CCCCN)C(=O)N[C@@H](CCCCNC(=O)[C@H](C)N)C(=O)N[C@@H](CC(N)=O)C(=O)N[C@H](CC(C)C)C(N)=O)NC1=O` .
# output 8

# input Name the reported half-life at 20 μM value associated with the molecule CC(=O)NCCCC[C@H](NC(=O)[C@](C)(CCCCN)NC(=O)[C@H](Cc1ccc2ccccc2c1)NC(=O)[C@H](Cc1ccc(OCCN)cc1)NC(=O)[C@H]1NC(=O)[C@H](CCCNC(N)=O)NC(=O)[C@H](Cc2c[nH]c3c(C)cccc23)NC(=O)[C@H]([C@@H](C)O)NC(=O)[C@H](CC(N)=O)NC(=O)[C@@H](NC(C)=O)C(C)(C)SSC1(C)C)C(=O)N[C@@H](CC(N)=O)C(=O)NC(C)(C)C(=O)NCCC(N)=O [compound 340] (Ac-[Pen]NT[Trp(7-Me)][Cit][Pen][AEF][2Nal][αMeK]K(Ac)N[Aib][βAla]-NH2; disulfide 1-6)
# output 17

# input Which half-life at 20 μM reading was recorded for the molecule CC(=O)N[C@@H]1C(=O)N[C@@H](CC(N)=O)C(=O)N[C@@H]([C@@H](C)O)C(=O)N[C@@H](Cc2c[nH]c3c(C)cccc23)C(=O)N[C@@H](CCCNC(N)=O)C(=O)N[C@H](C(=O)N[C@@H](Cc2ccc(OCCN)cc2)C(=O)N[C@@H](Cc2ccc3ccccc3c2)C(=O)N[C@@](C)(CCCCN)C(=O)N[C@@H](CCCNC(N)=O)C(=O)NCCC(=O)NCCC(N)=O)C(C)(C)SSC1(C)C [compound 281] (Ac-[Pen]NT[Trp(7-Me)][Cit][Pen][AEF][2Nal][αMeK][Cit][βAla][βAla]-NH2; disulfide 1-6) ?
# output 14

# input Look up half-life at 20 μM for this molecule: `CC(=O)NCCCC[C@H](NC(=O)[C@](C)(CCCCN)NC(=O)[C@H](Cc1ccc2ccccc2c1)NC(=O)[C@H](Cc1ccc(OCCN)cc1)NC(=O)[C@H]1NC(=O)[C@H](CCCCNC(=O)CN)NC(=O)[C@H](Cc2c[nH]c3c(C)cccc23)NC(=O)[C@H]([C@@H](C)O)NC(=O)[C@H](CC(N)=O)NC(=O)[C@@H](NC(C)=O)C(C)(C)SSC1(C)C)C(=O)N[C@@H](CC(N)=O)C(=O)N[C@H](CC(C)C)C(N)=O`
# output 21

# input Which half-life at 20 μM value is on record for CC(=O)NCCCC[C@@H]1NC(=O)[C@H](Cc2c[nH]c3c(C)cccc23)NC(=O)[C@H]([C@@H](C)O)NC(=O)[C@H](C)NC(=O)[C@@H](NC(C)=O)C(C)(C)SSC(C)(C)[C@@H](C(=O)N[C@@H](Cc2ccc(OCCN)cc2)C(=O)N[C@@H](Cc2ccc3ccccc3c2)C(=O)N[C@@](C)(CCCCN)C(=O)N[C@@H](CCCCNC(C)=O)C(=O)N[C@@H](CC(N)=O)C(=O)N[C@H](CC(C)C)C(N)=O)NC1=O [compound 328] (Ac-[Pen]AT[Trp(7-Me)]K(Ac)[Pen][AEF][2Nal][αMeK]K(Ac)N[dL]-NH2; disulfide 1-6) ?
# output 23

# input # lookup: half-life at 20 μM of CC(=O)NCCCC[C@H](NC(=O)[C@](C)(CCCCN)NC(=O)[C@H](Cc1ccc2ccccc2c1)NC(=O)[C@H](Cc1ccc(OCCN)cc1)NC(=O)[C@H]1NC(=O)[C@H](CCCNC(N)=O)NC(=O)[C@H](Cc2c[nH]c3c(C)cccc23)NC(=O)[C@H]([C@@H](C)O)NC(=O)[C@H](CC(N)=O)NC(=O)[C@@H](NC(C)=O)C(C)(C)SSC1(C)C)C(=O)N[C@@H](CC(N)=O)C(=O)NC(C)(C)C(=O)N[C@H](CCCCN)C(N)=O [compound 344] (Ac-[Pen]NT[Trp(7-Me)][Cit][Pen][AEF][2Nal][αMeK]K(Ac)N[Aib][dK]-NH2; disulfide 1-6)
# output 9

# input Value lookup for half-life at 20 μM; key = CC(=O)NCCCC[C@@H]1NC(=O)[C@H](Cc2c[nH]c3c(C)cccc23)NC(=O)[C@H]([C@@H](C)O)NC(=O)[C@@H]2CCCN2C(=O)[C@@H](NC(C)=O)C(C)(C)SSC(C)(C)[C@@H](C(=O)N[C@@H](Cc2ccc(OCCN)cc2)C(=O)N[C@@H](Cc2ccc3ccccc3c2)C(=O)N[C@@](C)(CCCCN)C(=O)N[C@@H](CCCCNC(C)=O)C(=O)N[C@@H](CC(N)=O)C(=O)N[C@H](CC(C)C)C(N)=O)NC1=O [compound 333] (Ac-[Pen]PT[Trp(7-Me)]K(Ac)[Pen][AEF][2Nal][αMeK]K(Ac)N[dL]-NH2; disulfide 1-6)
# output 22

# input Tell me the measured half-life at 20 μM of `CC(=O)NCCCC[C@@H]1NC(=O)[C@H](Cc2c[nH]c3c(C)cccc23)NC(=O)[C@H]([C@@H](C)O)NC(=O)[C@H](CC(N)=O)NC(=O)[C@@H](NC(C)=O)C(C)(C)SSC(C)(C)[C@@H](C(=O)N[C@@H](Cc2ccc(OCCN)cc2)C(=O)N[C@@H](Cc2ccc3ccccc3c2)C(=O)N[C@@](C)(CC(C)C)C(=O)N[C@@H](CCCCNC(C)=O)C(=O)N[C@@H](CC(N)=O)C(=O)N[C@H](CC(N)=O)C(N)=O)NC1=O` , please.
# output 11
